# subject_of_test: Full length DGKα (D21-10BG, SignalChem) (Homo sapiens, UniProt P23743)
# Construct: Full length DGKα (D21-10BG, SignalChem); purchased SignalChem D21-10BG
# Sequence (P23743 whole entry): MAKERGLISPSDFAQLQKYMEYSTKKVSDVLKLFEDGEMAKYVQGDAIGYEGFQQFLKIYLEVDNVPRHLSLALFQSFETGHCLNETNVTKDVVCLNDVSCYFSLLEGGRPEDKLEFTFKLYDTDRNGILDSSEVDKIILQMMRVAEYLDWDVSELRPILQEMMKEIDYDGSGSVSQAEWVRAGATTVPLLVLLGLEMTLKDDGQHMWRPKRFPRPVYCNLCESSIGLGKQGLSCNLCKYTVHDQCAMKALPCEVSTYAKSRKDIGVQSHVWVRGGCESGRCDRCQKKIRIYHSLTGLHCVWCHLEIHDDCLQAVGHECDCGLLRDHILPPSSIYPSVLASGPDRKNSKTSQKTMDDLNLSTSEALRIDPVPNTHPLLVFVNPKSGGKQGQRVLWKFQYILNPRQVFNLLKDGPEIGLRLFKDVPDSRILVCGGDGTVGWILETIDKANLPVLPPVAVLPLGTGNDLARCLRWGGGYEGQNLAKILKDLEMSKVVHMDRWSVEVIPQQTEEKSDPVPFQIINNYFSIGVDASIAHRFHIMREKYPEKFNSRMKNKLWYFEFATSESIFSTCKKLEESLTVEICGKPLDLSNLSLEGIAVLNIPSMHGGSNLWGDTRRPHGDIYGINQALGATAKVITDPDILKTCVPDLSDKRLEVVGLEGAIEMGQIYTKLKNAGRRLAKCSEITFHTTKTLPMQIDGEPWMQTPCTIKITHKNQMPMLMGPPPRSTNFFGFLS
# experiment: Biochemical DGK IC50 assay (ADP-Glo, lipid micelle substrate), DGKα
# stated_conditions: 1 hour preincubation, 1 hour reaction, room temperature
# Experimental: Enzymatic reactions of DGKζ, DGKα and DGKδ were performed using ADP-Glo assay with lipid micelle substrate. […] Full length DGKα (D21-10BG, SignalChem) and full length DGKδ (D23-10G, SignalChem) were purchased. Lipid micelle was prepared by dissolving DAG (Sigma, 317505-10 MG) and PS (Sigma, P7769-100 MG) with chloroform which was furtherly removed by rotary evaporation. […]
measurement_kind: IC50 (µM)
Give the number; µM is assumed, so skip it.

Below are worked cases with known answers.
>>> reported_value("CCn1c(CC#N)nc2c(N3C[C@@H](C)N(C(C)c4ccc5c(c4Cl)OC(C)(C)O5)C[C@@H]3C)nc(=O)n(C)c21 (single isomer, unassigned) [Compound A172a]")
132
>>> reported_value("CCn1c(CC#N)nc2c(N3C[C@@H](C)N(C(C)c4ccc5c(c4)OC(C)(C)CO5)C[C@@H]3C)c(F)c(=O)n(C)c21 (stereo partly drawn)")
93
>>> reported_value("CCn1c(CC#N)nc2c(N3C[C@@H](C)N(C(C)c4cc5c(cc4F)OCC(C)(C)O5)C[C@@H]3C)nc(=O)n(C)c21 (single isomer, unassigned) [Compound A157a]")
11.6

Moving on to the next molecule.
INPUT: Entry CCn1c(=O)nc(N2C[C@@H](C)N(C(C)c3ccc4c(c3)OC(C)(C)CO4)C[C@@H]2C)c2nc(CC#N)n(C)c21 (single isomer, unassigned) [Compound A61a] : reported IC50 = ?
OUTPUT: 10.1

---

# subject_of_test: Full length DGKα (D21-10BG, SignalChem) (Homo sapiens)
measurement_kind: IC50

>>> reported_value("CC(c1ccc(F)cc1C(F)(F)F)N1C[C@H](C)N(c2nc(=O)n(C)c3c2nc(CC#N)n3C)C[C@H]1C (single isomer, unassigned) [Compound A33b]")
"> 10 µM"

INPUT: Form entry - test system: Full length DGKα (D21-10BG, SignalChem) (Homo sapiens); read-out: IC50; compound: CCn1c(CC#N)nc2c(N3C[C@@H](C)N(C(C)c4nc5c(cc4F)OCC(C)(C)O5)C[C@@H]3C)nc(=O)n(C)c21 (mixture of isomers) [Compound A161]
OUTPUT: > 150 µM

INPUT: Form entry - test system: Full length DGKα (D21-10BG, SignalChem) (Homo sapiens); read-out: IC50; compound: CCn1c(CC#N)nc2c(N3C[C@@H](C)N(C(C)c4cc5c(cc4F)OC(C)(C)O5)C[C@@H]3C)nc(=O)n(C)c21 (single isomer, unassigned) [Compound A174b]
OUTPUT: 30.6 µM

INPUT: Form entry - test system: Full length DGKα (D21-10BG, SignalChem) (Homo sapiens); read-out: IC50; compound: CCn1c(CC#N)nc2c(N3C[C@@H](C)N(C(C)c4c(F)cc5c(c4F)OC(C)(C)O5)C[C@@H]3C)nc(=O)n(C)c21 (single isomer, unassigned) [Compound A176b]
OUTPUT: 7.19 µM

INPUT: Form entry - test system: Full length DGKα (D21-10BG, SignalChem) (Homo sapiens); read-out: IC50; compound: CCn1c(CC#N)nc2c(N3C[C@@H](C)N(C(C)c4cccc(C5COC5)c4)C[C@@H]3C)nc(=O)n(C)c21 (stereo partly drawn)
OUTPUT: > 150 µM

INPUT: Form entry - test system: Full length DGKα (D21-10BG, SignalChem) (Homo sapiens); read-out: IC50; compound: CCn1c(CC#N)nc2c(N3C[C@@H](C)N(C(C)c4ccc5c(c4)OC(C)(C)O5)C[C@@H]3C)c(F)c(=O)n(C)c21 (stereo partly drawn)
OUTPUT: > 150 µM

INPUT: Form entry - test system: Full length DGKα (D21-10BG, SignalChem) (Homo sapiens); read-out: IC50; compound: CC[C@@H]1CN(c2nc(=O)n(C)c3c2nc(CC#N)n3CC)[C@@H](C)CN1C(C)c1ccc2c(n1)OC(C)(C)CO2 (single isomer, unassigned) [Compound A158b]
OUTPUT: > 150 µM

---

# subject_of_test: Full length DGKζ (in-house protein M1-V929) (Homo sapiens)
# Construct: His (N); TEV site (N); made in house; host or cells: Sf9 insect cells (Bac-to-Bac baculovirus)
# experiment: Biochemical DGK IC50 assay (ADP-Glo, lipid micelle substrate), DGKζ
# stated_conditions: 1 hour preincubation, 1 hour reaction, room temperature
measurement_kind: IC50

Below are worked cases with known answers.
>>> reported_value("CC[C@@H]1CN(c2nc(=O)n(CC)c3c2nc(CC#N)n3C)[C@@H](C)CN1C(C)c1ccc2c(c1)OC(C)(C)CO2 (single isomer, unassigned) [Compound A66b]")
"1 nM"
>>> reported_value("COC(C)c1cc(F)ccc1C(C)N1C[C@H](C)N(c2nc(=O)n(C)c3c2nc(CC#N)n3C)C[C@H]1C (stereo partly drawn)")
"3 nM"

Moving on to the next compound.
INPUT: Entry CCn1c(CC#N)nc2c(N3C[C@@H](C)N(C(C)c4cccc(C(F)(F)F)n4)C[C@@H]3C)nc(=O)n(C)c21 (single isomer, unassigned) [Compound A118a] : reported IC50 = ?
OUTPUT: 4820 nM

---

# subject_of_test: Full length DGKζ (in-house protein M1-V929) (Homo sapiens, UniProt Q13574)
# Construct: His (N); TEV site (N)
# Sequence (Q13574 1-929 isoform Q13574-4): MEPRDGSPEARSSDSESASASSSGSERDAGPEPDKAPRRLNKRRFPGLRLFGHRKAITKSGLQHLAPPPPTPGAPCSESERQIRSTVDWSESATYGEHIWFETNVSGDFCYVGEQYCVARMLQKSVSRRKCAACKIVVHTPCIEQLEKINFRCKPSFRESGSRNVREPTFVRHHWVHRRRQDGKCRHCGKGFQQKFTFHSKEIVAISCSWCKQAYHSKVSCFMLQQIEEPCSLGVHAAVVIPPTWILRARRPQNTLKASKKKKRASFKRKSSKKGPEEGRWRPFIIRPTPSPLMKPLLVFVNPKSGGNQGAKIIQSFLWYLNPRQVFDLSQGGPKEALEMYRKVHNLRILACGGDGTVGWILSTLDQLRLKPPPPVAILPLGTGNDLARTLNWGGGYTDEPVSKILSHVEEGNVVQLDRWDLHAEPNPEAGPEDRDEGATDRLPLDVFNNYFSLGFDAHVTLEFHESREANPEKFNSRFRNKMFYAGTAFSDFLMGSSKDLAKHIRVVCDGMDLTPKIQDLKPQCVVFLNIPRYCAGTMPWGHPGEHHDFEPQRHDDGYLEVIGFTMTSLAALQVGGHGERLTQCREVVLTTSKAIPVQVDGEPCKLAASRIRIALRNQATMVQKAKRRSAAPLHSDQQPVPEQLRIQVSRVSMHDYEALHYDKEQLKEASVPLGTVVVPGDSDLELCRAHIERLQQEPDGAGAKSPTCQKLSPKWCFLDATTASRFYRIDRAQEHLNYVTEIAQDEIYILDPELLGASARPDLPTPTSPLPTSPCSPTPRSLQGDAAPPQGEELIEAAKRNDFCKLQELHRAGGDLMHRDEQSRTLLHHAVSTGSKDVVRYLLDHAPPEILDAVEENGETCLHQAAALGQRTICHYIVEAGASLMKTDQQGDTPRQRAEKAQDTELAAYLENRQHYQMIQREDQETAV
# experiment: Biochemical DGK IC50 assay (ADP-Glo, lipid micelle substrate), DGKζ
# stated_conditions: 1 hour preincubation, 1 hour reaction, room temperature
measurement_kind: IC50 (nM)
Give the number; nM is assumed, so skip it.

Below are worked cases with known answers.
>>> reported_value("CCn1c(=O)nc(N2C[C@@H](C)N(C(C)c3ccc4c(c3)OC(C)(C)CO4)C[C@@H]2C)c2nc(CC#N)n(C)c21 (single isomer, unassigned) [Compound A61a]")
2
>>> reported_value("CCn1c(CC#N)nc2c(N3C[C@@H](C)N(C(C)c4ccc5c(c4F)OC(C)(C)O5)C[C@@H]3C)nc(=O)n(C)c21 (stereo partly drawn) [Compound A175]")
5

Moving on to the next molecule.
INPUT: Entry CC(c1cc(F)c2c(c1)OC(C)(C)CO2)N1C[C@H](C)N(c2nc(=O)n(C)c3c2nc(CC#N)n3C)C[C@H]1C (single isomer, unassigned) [Compound A68a] : reported IC50 = ?
OUTPUT: 2

---

# subject_of_test: Full length DGKζ (in-house protein M1-V929) (Homo sapiens)
# Construct: His (N); TEV site (N)
# experiment: Biochemical DGK IC50 assay (ADP-Glo, lipid micelle substrate), DGKζ
# stated_conditions: 1 hour preincubation, 1 hour reaction, room temperature
measurement_kind: pIC50
The read-out pIC50 is expressed as -log10 of concentration in moles per litre.

Below are worked cases with known answers.
>>> reported_value("Cc1cnc2ccc(C(C)N3C[C@H](C)N(c4nc(=O)n(C)c5c4nc(CC#N)n5C)C[C@H]3C)cc2n1 (single isomer, unassigned) [Compound A49a]")
8.22
>>> reported_value("Cc1ccc(C(C)N2C[C@H](C)N(c3cc(=O)n(C)c4c3nc(CC#N)n4C)C[C@H]2C)c(C(F)(F)F)c1 (single isomer, unassigned) [Compound A8b]")
7.01
>>> reported_value("CCn1c(CC#N)nc2c(N3C[C@@H](C)N(C(C)c4ccc5c(c4F)OC(C)(C)O5)C[C@@H]3C)nc(=O)n(C)c21 (single isomer, unassigned) [Compound A175b]")
8.40
>>> reported_value("CC[C@@H]1CN(c2nc(=O)n(C)c3c2nc(CC#N)n3CC)[C@@H](C)CN1C(C)c1ccc2c(n1)OC(C)(C)CO2 (single isomer, unassigned) [Compound A158b]")
6.39
>>> reported_value("CCn1c(CC#N)nc2c(N3C[C@@H](C)N(C(C)c4ccc5c(c4)OC(F)(F)CO5)C[C@@H]3C)nc(=O)n(C)c21 (single isomer, unassigned) [Compound A80a]")
8.15
>>> reported_value("CCn1c(CC#N)nc2c(N3C[C@@H](C)N(C(C)c4ccc5c(c4)OC(F)(F)O5)C[C@@H]3C)nc(=O)n(C)c21 (single isomer, unassigned) [Compound A99b]")
6.27
>>> reported_value("CC(c1cccc(C(F)(F)F)c1)N1C[C@H](C)N(c2nc(=O)n(C)c3c2nc(CC#N)n3C)C[C@H]1C (stereo partly drawn) [Compound A41]")
7.80
>>> reported_value("CCn1c(CC#N)nc2c(N3C[C@@H](C)N(C(C)c4cccc5c4OC(C)(C)O5)C[C@@H]3C)nc(=O)n(C)c21 (stereo partly drawn) [Compound A186]")
6.81

INPUT: Entry CCn1c(CC#N)nc2c(N3C[C@@H](C)N(C(C)c4ccc5ccn(C)c(=O)c5c4)C[C@@H]3C)nc(=O)n(C)c21 (stereo partly drawn) [Compound A92] : reported pIC50 = ?
OUTPUT: 6.91

INPUT: Entry CCn1c(CC#N)nc2c(N3C[C@@H](C)N(C(C)c4ccc5c(n4)OC(C)(C)C5)C[C@@H]3C)nc(=O)n(C)c21 (stereo partly drawn) [Compound A180] : reported pIC50 = ?
OUTPUT: 5.35

INPUT: Entry CCn1c(CC#N)nc2c(N3C[C@@H](C)N(C(C)c4ccc(F)c5c4OC(C)(C)O5)C[C@@H]3C)nc(=O)n(C)c21 (single isomer, unassigned) [Compound A185b] : reported pIC50 = ?
OUTPUT: 7.70

INPUT: Entry CC(c1ccc2c(c1)OC(F)(F)C(F)(F)O2)N1C[C@H](C)N(c2nc(=O)n(C)c3c2nc(CC#N)n3C)C[C@H]1C (single isomer, unassigned) [Compound A79b] : reported pIC50 = ?
OUTPUT: 6.28
